Target: Interstitial collagenase (Homo sapiens)
Assay: Inhibition of degradation of radiolabeled rat skin type I collagen by semipurified human lung fibroblast collagenase
pIC50: −log10 of the molar value.
Would you mind labelling by pIC50? At or over 6 is Satisfied, under is Not satisfied.

Worked cases, answers included:
CC[C@H](N[C@H](CC(C)C)C(=O)N[C@@H](Cc1ccccc1)C(=O)NC)P(=O)(O)O	Not satisfied
CC[C@H](N[C@@H](CC(C)C)C(=O)N[C@@H](Cc1c[nH]c2ccccc12)C(=O)NC)P(=O)(O)O	Satisfied
CNC(=O)[C@H](Cc1ccc(OC)cc1)NC(=O)[C@H](CC(C)C)N[C@H](C)C(=O)O	Not satisfied
CCCCC(NC(CC(C)C)C(=O)N[C@@H](Cc1ccc(OC)cc1)C(=O)NC)P(=O)(O)O (stereo not given in full)	Not satisfied
CNC(=O)[C@H](Cc1ccc(OC)cc1)NC(=O)[C@H](CC(C)C)N[C@@H](CCNC(=O)OCc1ccccc1)C(=O)O	Satisfied
CC[C@H](N[C@@H](CC(C)C)C(=O)N[C@@H](CCCN(C)C)C(=O)NC)P(=O)(O)O	Satisfied
CNC(=O)[C@H](Cc1ccccc1)NC(=O)[C@H](CC(C)C)N[C@@H](CCc1ccccc1)P(=O)(O)O	Satisfied
CC[C@H](N[C@@H](CC(C)C)C(=O)N[C@@H](CCCNC(=N)N)C(=O)NC)P(=O)(O)O	Satisfied
CCC(NC(CC(C)C)C(=O)N[C@@H](Cc1ccc(OC)cc1)C(=O)NC)[PH](=O)O (stereo not given in full)	Not satisfied
CC[C@H](N[C@@H](CC(C)C)C(=O)N[C@@H](Cc1ccc(OC)cc1)C(=O)NC)P(=O)(O)O	Satisfied

**Q:** Hi team, for CC[C@@H](N[C@@H](CC(C)C)C(=O)N[C@@H](Cc1ccccc1)C(=O)NC)P(=O)(O)O , is the recorded pIC50 at or above 6?
**A:** Satisfied

**Q:** Now try CCCC(NC(CC(C)C)C(=O)N[C@@H](Cc1ccc(OC)cc1)C(=O)NC)P(=O)(O)O (stereo not given in full) .
**A:** Not satisfied

**Q:** Now try CNC(=O)[C@H](Cc1ccc(OC)cc1)NC(=O)[C@H](CC(C)C)N[C@@H](C)P(=O)(O)O .
**A:** Satisfied

**Q:** Now try CNC(=O)[C@H](Cc1ccc(OC)cc1)NC(=O)C(CC(C)C)NC(C)P(C)(=O)O (stereo not given in full) .
**A:** Not satisfied

###

# pIC50 per entry
Target: Interstitial collagenase (Homo sapiens, UniProt P03956)
Sequence (P03956 whole entry): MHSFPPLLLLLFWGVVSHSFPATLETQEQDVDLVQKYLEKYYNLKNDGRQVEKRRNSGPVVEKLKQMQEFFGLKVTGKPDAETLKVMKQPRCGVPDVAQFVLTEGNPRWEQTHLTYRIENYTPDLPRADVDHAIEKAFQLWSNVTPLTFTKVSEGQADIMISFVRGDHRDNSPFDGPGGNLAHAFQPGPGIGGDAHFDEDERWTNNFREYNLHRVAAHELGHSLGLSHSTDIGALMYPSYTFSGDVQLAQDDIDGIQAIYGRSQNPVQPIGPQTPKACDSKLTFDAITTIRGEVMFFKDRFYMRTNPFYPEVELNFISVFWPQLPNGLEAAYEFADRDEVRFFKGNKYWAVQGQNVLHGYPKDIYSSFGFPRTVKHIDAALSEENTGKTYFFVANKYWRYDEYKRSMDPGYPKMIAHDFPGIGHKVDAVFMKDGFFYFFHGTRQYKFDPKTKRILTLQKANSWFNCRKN
Assay: Inhibition of degradation of radiolabeled rat skin type I collagen by semipurified human lung fibroblast collagenase
Lab note — pIC50 values are minus log10 of concentrations in M.

Recorded pIC50, per entry:
CC[C@H](N[C@@H](CC(C)C)C(=O)N[C@@H](CC(=O)NCCN1CCCC1)C(=O)NC)P(=O)(O)O	5.87
CC[C@H](N[C@@H](CC(C)C)C(=O)N[C@@H](Cn1cccn1)C(=O)NC)P(=O)(O)O	6.12
CC[C@H](N[C@@H](CC(C)C)C(=O)N[C@@H](CCCCN)C(=O)NC)P(=O)(O)O	5.36
CC[C@H](N[C@H](CC(C)C)C(=O)N[C@@H](Cc1ccc(OC)cc1)C(=O)NC)P(=O)(O)O	4.81
CNC(=O)[C@H](Cc1ccc(OC)cc1)NC(=O)C(CC(C)C)NC(CC(C)C)P(=O)(O)O (stereo partly specified)	5.54

**Q:** Tell me the measured pIC50 of CC[C@@H](N[C@H](CC(C)C)C(=O)N[C@@H](Cc1ccc(OC)cc1)C(=O)NC)P(=O)(O)O , please.
**A:** 4.41

**Q:** Now try CNC(=O)CP(=O)(O)C[C@@H](CC(C)C)C(=O)N[C@@H](Cc1ccc(OC)cc1)C(=O)NC .
**A:** 4.43

**Q:** Now try CC[C@@H](N[C@@H](CC(C)C)C(=O)N[C@@H](CCCCN)C(=O)NC)P(=O)(O)O .
**A:** 6.13

**Q:** Now try CNC(=O)[C@H](Cc1ccc(OC)cc1)NC(=O)C(CC(C)C)NC(C(C)C)P(=O)(O)O (stereo partly specified) .
**A:** 5.54

**Q:** Now try CC[C@H](N[C@@H](CC(C)C)C(=O)N[C@@H](Cc1ccccc1)C(=O)NC)P(=O)(O)O .
**A:** 6.64
